Hi there, I'd appreciate the recorded pKd for every entry that follows.
Target: T1, CEACAM1-HIS (Sino Biologics Inc.) (Homo sapiens (Human), UniProt P13688 35-428)
T1 construct: bought; not shown: His tag
T1 sequence: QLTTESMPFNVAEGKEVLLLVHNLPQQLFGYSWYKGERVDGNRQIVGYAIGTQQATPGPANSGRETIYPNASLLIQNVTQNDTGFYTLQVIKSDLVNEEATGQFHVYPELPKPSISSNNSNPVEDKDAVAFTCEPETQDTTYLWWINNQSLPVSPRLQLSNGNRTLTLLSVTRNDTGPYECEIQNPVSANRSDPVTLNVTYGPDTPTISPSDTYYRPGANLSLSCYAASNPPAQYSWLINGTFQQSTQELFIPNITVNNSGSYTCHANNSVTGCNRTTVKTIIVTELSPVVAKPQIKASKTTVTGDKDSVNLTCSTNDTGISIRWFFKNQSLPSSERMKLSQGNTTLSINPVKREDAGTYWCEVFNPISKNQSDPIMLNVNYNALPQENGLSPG
Assay: SPR multi-cycle, IgG on Protein A
Answer as the number alone; pKd is minus log10 of concentration in mol/L.

Data request: pKd lookup needed for VH1/Vκ1 (antibody, V domains shown) VH: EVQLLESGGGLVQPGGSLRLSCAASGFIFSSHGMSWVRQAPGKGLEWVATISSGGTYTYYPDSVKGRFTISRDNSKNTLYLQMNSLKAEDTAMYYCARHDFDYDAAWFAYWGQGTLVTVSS VL: QIVLTQSPALLSLSPGERATMSCSANSSVSYMYWYRQKPGQAPKPWIYLTSNLASGVPARFSGSGSGTDYTLTISSLEAEDFATYYCQQWSSNPPTFGQGTKLEIK , thanks.
Data returned: 7.42

Data request: pKd lookup needed for VH1/Vκ2 (antibody, V domains shown) VH: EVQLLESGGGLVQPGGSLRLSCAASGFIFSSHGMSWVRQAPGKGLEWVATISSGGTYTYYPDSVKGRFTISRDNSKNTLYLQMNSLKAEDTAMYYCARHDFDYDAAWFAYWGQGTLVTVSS VL: EIVLTQSPATLSLSPGERATLSCRANSSVSYMYWYQQKPGQAPRPWIYLTSNRATGVPARFSGSGSGTDYTLTISSLEPEDFATYYCQQWSSNPPTFGQGTKLEIK , thanks.
Data returned: 7.55

Data request: pKd lookup needed for VH2/Vκ1 (antibody, V domains shown) VH: EVQLLESGGGLVQPGGSLRLSCAASGFIFSSHGMSWVRQAPGKGLEWVATISSGGTYTYYPDSVKGRFTISRDNSKNTLYLQMNSLRAEDTAMYYCARHDFDYDAAWFAYWGQGTLVTVSS VL: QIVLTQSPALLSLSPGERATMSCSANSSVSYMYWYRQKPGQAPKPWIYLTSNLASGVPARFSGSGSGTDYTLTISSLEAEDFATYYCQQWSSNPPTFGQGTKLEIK , thanks.
Data returned: 7.48

Data request: pKd lookup needed for VH2/Vκ2 (antibody, V domains shown) VH: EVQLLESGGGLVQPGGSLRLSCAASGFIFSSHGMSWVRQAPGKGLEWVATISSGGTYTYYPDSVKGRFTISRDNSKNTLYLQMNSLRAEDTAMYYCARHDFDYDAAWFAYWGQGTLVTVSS VL: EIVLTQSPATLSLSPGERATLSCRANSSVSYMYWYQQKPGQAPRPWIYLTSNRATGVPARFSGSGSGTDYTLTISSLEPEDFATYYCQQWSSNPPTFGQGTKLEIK , thanks.
Data returned: 7.56

// provenance: patent US20250388666A1
